System: CP237
Assay explanation: qHTS profiling for inhibitors of Plasmodium falciparum proliferation (AID 504749); note: nearly all actives have a fitted effect of over 60% in size
Test context: P. falciparum in erythrocytes, SYBR Green DNA, 72 h; series mostly up to 28.7 µM
Records with an inconclusive call do not appear. Activity calls are given as the source filed them. Calls come from the whole dose curve; as a rule, active = well fitted inhibition curve with a large enough effect; inconclusive = small, poorly fitted or top-dose-only effect; inactive = flat fitted curve, though single readings scatter.
Pick one: true = active, false = inactive

compound=CC(C)Cn1cnc2c(N)nc3ccccc3c21 class=false

What is the recorded call for this compound in the test? N=C(N)c1ccc(OCCCCCOc2ccc(C(=N)N)cc2)cc1 true

What is the recorded call for this compound in the test? CN(CCOc1ccc(CC2SC(=O)NC2=O)cc1)c1ccccn1 (configuration not stated) false

What is the recorded call for this compound in the test? COc1cc(NCc2ccc3nc(N)nc(N)c3c2C)cc(OC)c1OC true

What is the recorded call for this compound in the test? Nc1nc(N)c2nc(CNc3ccc(C(=O)NC(CCC(=O)O)C(=O)O)cc3)cnc2n1 (configuration not stated) false

What is the recorded call for this compound in the test? COc1ccc2cc3[n+](cc2c1OC)CCc1cc2c(cc1-3)OCO2 true

What is the recorded call for this compound in the test? Oc1c(Cl)cc(Cl)c2cccnc12 true

What is the recorded call for this compound in the test? Cc1ccnc2c1NC(=O)c1cccnc1N2C1CC1 false

What is the recorded call for this compound in the test? CCOC(=O)[C@H](CCc1ccccc1)N[C@H]1CS[C@H](c2cccs2)CN(CC(=O)O)C1=O false

What is the recorded call for this compound in the test? Cn1nnc2c(C(N)=O)ncn2c1=O false

What is the recorded call for this compound in the test? COc1ncnc(NS(=O)(=O)c2ccc(N)cc2)c1OC false

What is the recorded call for this compound in the test? CC[C@H](C)C(=O)O[C@H]1C[C@@H](C)C=C2C=C[C@H](C)[C@H](CC[C@@H]3C[C@@H](O)CC(=O)O3)[C@H]21 false
